Kindly supply the reported %Inh values for the records listed here.
System: FER;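 note: KINOMEscan kinase panel screen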
Details: concentration: 1 μM, replicates: in singlicate; n = 1
Quick note: number first, unit second.

## Task Suppose we examine the molecule Cl.N#CCc1ccc(Nc2nccc(Nc3ccc(Oc4ccccc4)cc3)n2)cc1 [GW639905] ; what %Inh value has been reported?
## Result 0%

## Task GET /values?readout=%Inh&item= COc1ccc(C)c(Nc2ccnc(Nc3ccc(-c4cnc[nH]4)cc3)n2)c1.Cl [GW784041]
## Result 2%

## Task Sample CN(C)CCNS(=O)(=O)c1ccc(-c2ccnc3[nH]ccc23)cc1 [GSK977620] — what was its %Inh?
## Result 41%

## Task // returns reported %Inh for input Cn1cc(-c2ccc3c(c2)CCN3C(=O)Cc2cc(F)cc(F)c2F)c2c(N)ncnc21 [GSK2634140]
## Result 39%

## Task Give the measured %Inh of COc1cccc(CC(=O)N2CCc3cc(-c4cn(C)c5ncnc(N)c45)ccc32)c1 [GSK2608899] .
## Result 17%

## Task Find the recorded %Inh belonging to O=C(Nc1n[nH]c2cc(-c3cccs3)ccc12)C1CC1 [SB-731284] and report it.
## Result 0%

## Task # lookup: %Inh of Nc1ncnc2scc(-c3ccc(NC(=O)Cc4cc(F)ccc4F)cc3)c12.O=C(O)C(F)(F)F [SB-731254-M]
## Result 4%

## Task Need %Inh of O=C(Nc1c(F)cccc1F)c1cc(C(=O)c2ccccc2F)c[nH]1 [GSK1326180] , thanks.
## Result 0%

## Task Please report the recorded %Inh for Cc1ccc(NC(=O)c2cccc(N3CCCCC3)c2)cc1-c1ccc(C(=O)NCC2CC2)cc1 [GSK1917008] .
## Result 16%

## Task Any idea what its %Inh is? The molecule is COc1ccc(NC(=O)c2ccoc2)cc1-c1ccc(C(=O)NCC2CC2)cc1 [GW810437]
## Result 0%

## Task # lookup: %Inh of COC(=O)Nc1nc2cc(Oc3ccc(NC(=O)Nc4cccc(SC)c4)cc3)ccc2[nH]1.Cl [GW697999]
## Result 13%

## Task Which %Inh value belongs to COC(=O)Nc1nc2ccc(Oc3ccc(NC(=O)Nc4cc(C(F)(F)F)ccc4F)cc3)cc2[nH]1.Cl [GW654607] ?
## Result 0%

## Task What measured %Inh goes with CCn1cnc2c(NCc3ccccc3)ncnc21 [SKF-96418] ?
## Result 0%

## Task Report %Inh for Cl.Cl.NC(CNC(=O)c1cc(Br)c(-c2ccnc3[nH]ccc23)s1)c1ccccc1 (stereo not drawn) [GSK1322949] please.
## Result 10%

## Task I have this molecule here, COC(=O)Nc1nc2ccc(Oc3ccc(CC(=O)Nc4cc(C(F)(F)F)ccc4F)cc3)cc2[nH]1 [GW680903] , and I need its recorded %Inh.
## Result 0%

## Task Return reported %Inh; argument: CC(C)NCC(Cc1ccccc1)NC(=O)c1cc(Br)c(-c2ccnc3[nH]ccc23)s1.Cl.Cl (stereo not drawn) [GSK1383281]
## Result 0%

## Task // %Inh lookup, key: Cc1ccc(-c2ccc3occ(-c4ccc(S(C)=O)cc4)c3c2)nn1 (stereo not drawn)
## Result 0%

## Task Give its %Inh value. Item: Fc1cc(Cl)ccc1Nc1ccnc2cc(-c3ccc(CN4CCOCC4)o3)ccc12 [GW560109]
## Result 6%

## Task Given the entry Cl.O=C(Nc1ccc(Oc2ccc3[nH]c(NC(=O)c4ccco4)nc3c2)cc1)Nc1cc(C(F)(F)F)ccc1F [GW683134] , report its measured %Inh.
## Result 0%

## Task Consider the molecule COc1cc(Nc2ccnc3cc(-c4ccncc4)ccc23)cc(OC)c1OC.Cl [GW494610] and give its measured %Inh.
## Result 26%

## Task I would be grateful if you could share the reported %Inh for Cn1cc(-c2ccc3c(c2)CCN3C(=O)Cc2cc(F)cc(C(F)(F)F)c2)c2c(N)ncnc21 [GSK2635225] .
## Result 34%
